Tested on: HNSC
Experiment: growth inhibition (% activity, log2 RLU normalised to DMSO / staurosporine); higher = more growth inhibition
Conditions: 33 µM
EXPERIMENTAL_READOUT: growth inhibition (%)
Give just the number in %; leave the unit off.

COMPOUND | SYSTEM_UNDER_TEST | EXPERIMENTAL_READOUT | UOM | NUMERIC_VALUE
CN(C)CCCN1c2ccccc2Sc2ccc(Cl)cc21 | HNSC | growth inhibition | % | 24.1

Input: State, in one line, measured growth inhibition of Cc1c(N(C)C)c(=O)n(-c2ccccc2)n1C
Output: -0.0115

Input: State, in one line, measured growth inhibition of CN(Cc1cc(Br)cc(Br)c1N)C1CCCCC1
Output: 7.22

Input: State, in one line, measured growth inhibition of Cc1cccn2c(=O)c(-c3nnn[nH]3)cnc12
Output: -1.69

Input: State, in one line, measured growth inhibition of NCCCC[C@H](N[C@@H](CCc1ccccc1)C(=O)O)C(=O)N1CCC[C@H]1C(=O)O
Output: -1.56

Input: State, in one line, measured growth inhibition of CCCc1ncc(C[n+]2ccccc2C)c(N)n1
Output: 7.92

Input: State, in one line, measured growth inhibition of C[C@@H]1CC(=O)NN=C1c1ccc(NN=C(C#N)C#N)cc1
Output: 5.57

Input: State, in one line, measured growth inhibition of CC(C)n1c(/C=C/[C@@H](O)C[C@@H](O)CC(=O)O)c(-c2ccc(F)cc2)c2ccccc21
Output: 26.9

Input: State, in one line, measured growth inhibition of O=c1[nH]c(=O)n([C@H]2C[C@H](O)[C@@H](CO)O2)cc1I
Output: 17.9

Input: State, in one line, measured growth inhibition of CCOC(=O)O[C@]1(C(=O)OCCl)CC[C@H]2[C@@H]3CCC4=CC(=O)C=C[C@]4(C)[C@H]3[C@@H](O)C[C@@]21C
Output: 1.32

Input: State, in one line, measured growth inhibition of CCCCC[C@H](O)/C=C/[C@H]1[C@H](O)CC(=O)[C@@H]1CCCCCCC(=O)O
Output: 0.983

Input: State, in one line, measured growth inhibition of CC1(C)Cc2c(-c3ccccc3)c(-c3ccc(Cl)cc3)c(CC(=O)O)n2C1
Output: 8.73

Input: State, in one line, measured growth inhibition of CNC(=O)c1cc(Oc2ccc(NC(=O)Nc3ccc(Cl)c(C(F)(F)F)c3)cc2)ccn1
Output: 76.1

Input: State, in one line, measured growth inhibition of CN(C)C(=N)NC(=N)N
Output: -0.258

Input: State, in one line, measured growth inhibition of O=C(O)c1cccnc1Nc1cccc(C(F)(F)F)c1
Output: -1.26

Input: State, in one line, measured growth inhibition of O=C1c2ccccc2C(=O)C1c1ccccc1
Output: -1.43

Input: State, in one line, measured growth inhibition of Cc1c(O)c(=O)ccn1C
Output: -3.85

Input: State, in one line, measured growth inhibition of Cc1cc2nc3c(=O)[nH]c(=O)nc-3n(C[C@H](O)[C@H](O)[C@H](O)CO)c2cc1C
Output: 6.98

Input: State, in one line, measured growth inhibition of CC(C)(C)NC(=O)[C@H]1CC[C@H]2[C@@H]3CC[C@H]4NC(=O)C=C[C@]4(C)[C@H]3CC[C@]12C
Output: 4.13

* * *

Tested on: DIPGX29 (H3.3 K27M diffuse intrinsic pontine glioma line)
Assay: growth inhibition (% activity, log2 RLU normalised to DMSO / staurosporine); higher = more growth inhibition
Conditions: 33 µM
Items are presented alongside their recorded growth inhibition.
Give just the number in %; leave the unit off.

MOLECULE | SYSTEM_UNDER_TEST | UOM | NUMERIC_VALUE
Nc1cccc2c1CN(C1CCC(=O)NC1=O)C2=O (stereo unspecified) | DIPGX29 | % | 0.182
COC(c1ccccc1)(c1ccccc1)[C@H](Oc1nc(C)cc(C)n1)C(=O)O | DIPGX29 | % | 1.89

Input: Under DIPGX29, report growth inhibition for NNC(=O)c1ccncc1
Output: 3.87

Input: Under DIPGX29, report growth inhibition for CC(O)(P(=O)(O)O)P(=O)(O)O
Output: -0.191

Input: Under DIPGX29, report growth inhibition for Cc1cccc(C)c1NC(=O)C1CCCCN1C (stereo unspecified)
Output: 0.788

Input: Under DIPGX29, report growth inhibition for C[C@]12CCC(=O)C=C1[C@@H]1C[C@@H]1[C@H]1[C@@H]3[C@@H]4C[C@@H]4[C@@]4(CCC(=O)O4)[C@@]3(C)CC[C@@H]12
Output: 0.956

* * *

Items are presented alongside their recorded growth inhibition.
System: SUDIPGIV (diffuse intrinsic pontine glioma line)
Assay: growth inhibition (% activity, log2 RLU normalised to DMSO / staurosporine); higher = more growth inhibition
Conditions: 33 µM
Give just the number in %; leave the unit off.

Some solved entries appear below for comparison.
COMPOUND | growth inhibition (%)
COc1ccc(CC(C)NCC(O)c2ccc(O)c(NC=O)c2)cc1 (configuration not stated) | 0.93
C[C@H]1c2cccc(O)c2C(=O)C2=C(O)[C@]3(O)C(=O)C(C(N)=O)=C(O)[C@@H](N(C)C)[C@@H]3[C@@H](O)[C@@H]21 | 10.2
Cc1ccc(O)c([C@H](CCN(C(C)C)C(C)C)c2ccccc2)c1 | 2

Input: Under SUDIPGIV, report growth inhibition for CCOC(=O)CCC(=O)O[C@H]1[C@H](O[C@@H]2[C@@H](C)[C@H](O[C@H]3C[C@@](C)(OC)[C@@H](O)[C@H](C)O3)[C@@H](C)C(=O)O[C@H](CC)[C@@](C)(O)[C@H](O)[C@@H](C)C(=O)[C@H](C)C[C@@]2(C)O)O[C@H](C)C[C@@H]1N(C)C
Output: -1.78

Input: Under SUDIPGIV, report growth inhibition for CC(C)(C)NC(=O)[C@H]1CC[C@H]2[C@@H]3CC[C@H]4NC(=O)C=C[C@]4(C)[C@H]3CC[C@]12C
Output: 0.54

Input: Under SUDIPGIV, report growth inhibition for O=C(O)CCc1nc(-c2ccccc2)c(-c2ccccc2)o1
Output: -2.53

Input: Under SUDIPGIV, report growth inhibition for N=C(N=C(N)N)N1CCOCC1
Output: -0.801

Input: Under SUDIPGIV, report growth inhibition for CN1CCOC(c2ccccc2)c2ccccc2C1 (configuration not stated)
Output: -1.45

* * *

Items are presented alongside their recorded growth inhibition.
System: HGGX6 (H3.3 G34R paediatric high-grade glioma line)
Test: growth inhibition (% activity, log2 RLU normalised to DMSO / staurosporine); higher = more growth inhibition
Details: 33 µM
Give just the number in %; leave the unit off.

COMPOUND | growth inhibition, %
O=C1[C@@H]2[C@H]3CC[C@H](C3)[C@@H]2C(=O)N1C[C@@H]1CCCC[C@H]1CN1CCN(c2nsc3ccccc23)CC1 | 1.59
CC(C)CN(C[C@@H](O)[C@H](Cc1ccccc1)NC(=O)O[C@H]1CCOC1)S(=O)(=O)c1ccc(N)cc1 | -0.047
COC(=O)C1=C(C)NC(C)=C(C(=O)OC(C)C)C1c1cccc2nonc12 (stereo not given) | -4.5
CC(=O)Oc1ccccc1C(=O)O | 4

// below: growth inhibition requested for another compound
Input: State, in one line, measured growth inhibition of COc1cc(OC)c(C(=O)CCCN2CCCC2)c(OC)c1
Output: -0.405

* * *

Tested on: DIPGX37 (H3.3 K27M diffuse intrinsic pontine glioma line)
Experiment: growth inhibition (% activity, log2 RLU normalised to DMSO / staurosporine); higher = more growth inhibition
Settings: 33 µM
EXPERIMENTAL_READOUT: growth inhibition (%)
Give just the number in %; leave the unit off.

Some solved entries appear below for comparison.
MOLECULE | growth inhibition, %
C[C@@H](c1ncncc1F)[C@](O)(Cn1cncn1)c1ccc(F)cc1F | -0.0255
CCCCc1nc(Cl)c(CO)n1Cc1ccc(-c2ccccc2-c2nnn[nH]2)cc1 | -1.24
C[C@@H](O)[C@H]1C(=O)N2C(C(=O)OCOC(=O)C(C)(C)C)=C(SC3CN(C4=NCCS4)C3)[C@H](C)[C@H]12 | 2.3
CCC[C@H](N[C@@H](C)C(=O)N1[C@H](C(=O)O)C[C@@H]2CCCC[C@@H]21)C(=O)OCC | 3.94
CCC[C@H](NC(=O)[C@@H]1[C@H]2CCC[C@H]2CN1C(=O)[C@@H](NC(=O)[C@@H](NC(=O)c1cnccn1)C1CCCCC1)C(C)(C)C)C(=O)C(=O)NC1CC1 | 1.66
O=C(NCCN1CCOCC1)c1ccc(Cl)cc1 | -0.588
C[C@@H]1C/C=C/C=C/C=C/C=C/[C@H](O[C@@H]2O[C@H](C)[C@@H](O)[C@H](N)[C@@H]2O)C[C@@H]2O[C@](O)(C[C@@H](O)C[C@H]3O[C@@H]3/C=C/C(=O)O1)C[C@H](O)[C@H]2C(=O)O | 2.42

Input: State, in one line, measured growth inhibition of CN(C)CCC(c1ccc(Br)cc1)c1ccccn1 (stereo not drawn)
Output: 1.72
